biological target: recombinant NS3 protease with the NS4A peptide cofactor … (molar ratio enzyme:cofactor 1:100) (hepatitis C virus genotype 1b); assay: cell-based or functional assay
*1 amine or outer side, *2 acyl side, *3 side chain or, on linkers, in order; H or OH if unused. Where no end group is shown, it is not given here. [ ]: non-standard residue; d: D form. Hyp(4-Bn) = 4(R)-benzyloxyproline, O=C([C@@H]1C[C@@H](OCc2ccccc2)CN1[*:1])[*:2]; AllylGly = C=CC[C@H](N)C(=O)O; Chg = N[C@H](C(=O)O)C1CCCCC1; Suc = O=C(CCC(=O)[*:2])[*:1]; Acca = not defined here; Nva = CCC[C@H](N)C(=O)O; Abu = CC[C@H](N)C(=O)O
Parameter IC50: see the listing below.
OBSERVATION_TYPE: IC50 (µM)

{"BINDER": "Suc-DIVP[Nva] [Compound 130 (Table 1): DAD-Asp-Ile-Val-Pro-Nva]", "OBSERVATION_TYPE": "IC50", "UNIT_SYMBOL": "µM", "MEASURED_VALUE": 123}
{"BINDER": "Ac-EDIVPC [Compound 102 (Table 1): Ac-Glu-Asp-Ile-Val-Pro-Cys]", "OBSERVATION_TYPE": "IC50", "UNIT_SYMBOL": "µM", "MEASURED_VALUE": 59}
{"BINDER": "Ac-DDIVP[Abu] [Compound 122 (Table 1): Ac-Asp-Asp-Ile-Val-Pro-Abu]", "OBSERVATION_TYPE": "IC50", "UNIT_SYMBOL": "µM", "MEASURED_VALUE": 315}
{"BINDER": "Ac-DDIV[Hyp(4-Bn)]C [Compound 121 (Table 1): Ac-Asp-Asp-Ile-Val-Hyp(4-Bn)-Cys]", "OBSERVATION_TYPE": "IC50", "UNIT_SYMBOL": "µM", "MEASURED_VALUE": 1.7}
{"BINDER": "Ac-DDIVP[AllylGly] [Compound 124 (Table 1): Ac-Asp-Asp-Ile-Val-Pro-AlGly]", "OBSERVATION_TYPE": "IC50", "UNIT_SYMBOL": "µM", "MEASURED_VALUE": 210}
{"BINDER": "Ac-DDIVIC [Compound 119 (Table 1): Ac-Asp-Asp-Ile-Val-Ile-Cys]", "OBSERVATION_TYPE": "IC50", "UNIT_SYMBOL": "µM", "MEASURED_VALUE": 90}
{"BINDER": "Ac-DE[Chg]EEC [Compound 131 (Table 1): Ac-Asp-Glu-Chg-Glu-Glu-Cys]", "OBSERVATION_TYPE": "IC50", "UNIT_SYMBOL": "µM", "MEASURED_VALUE": 24}
{"BINDER": "Ac-DE[Chg]V[Glu(OBn)][Acca] (reading uncertain; also: printed as Ac-Asp-Glu-Chg-Val-Glu(OBn)-Acca) [Compound 133 (Table 1): Ac-Asp-Glu-Chg-Val-Glu(OBn)-Acca]", "OBSERVATION_TYPE": "IC50", "UNIT_SYMBOL": "µM", "MEASURED_VALUE": 39}
{"BINDER": "Ac-DDIVPC [Compound 101 (Table 1): Ac-Asp-Asp-Ile-Val-Pro-Cys]", "OBSERVATION_TYPE": "IC50", "UNIT_SYMBOL": "µM", "MEASURED_VALUE": 46}
